- Test system: CW-2 (Colorectal Carcinoma)
- assay-method-text: combination Emax (second highest fraction inhibited in the dose matrix, 72 h); higher = more inhibition; extreme values may be limits of the assay
combination Emax reference
reported-metric: combination Emax

# compound, measurement
records = [
    ("Cc1cc2ncnn2cc1Nc1ncc2c(n1)n(C1CCOCC1)c(=O)n2C [AZD7648] + CN(C)CCCOc1ccc(-c2ccc3ncc4c(c3c2)n(C2CCOCC2)c(=O)n4C)cn1 [AZD0156] (first compound max 10 µM, 7x7, partner max 1 µM)", 0.207),
    ("Cc1c2c(nn1C)CSCc1cc(n(C)n1)CSc1cc(c3ccccc3c1)OCCCc1c(C(=O)O)n(C)c3c-2c(Cl)ccc13 [AZD5991] + Cc1cc2ncnn2cc1Nc1ncc2c(n1)n(C1CCOCC1)c(=O)n2C [AZD7648] (first compound max 1 µM, 7x7, partner max 10 µM)", 0.223),
    ("C[C@@H]1COCCN1c1cc(C2([S@](C)(=N)=O)CC2)nc(-c2ccnc3[nH]ccc23)n1 [AZD6738] + O=C(c1cc(Cc2n[nH]c(=O)c3ccccc23)ccc1F)N1CCN(C(=O)C2CC2)CC1 [Olaparib] (first compound max 10 µM, 7x7, partner max 10 µM)", 0.473),
    ("COc1cccc(OCCCN)c1-c1cc(Nc2cnc(C#N)cn2)n[nH]1 [Prexasertib] + CN(C)CCCOc1ccc(-c2ccc3ncc4c(c3c2)n(C2CCOCC2)c(=O)n4C)cn1 [AZD0156] (first compound max 1 µM, 7x7, partner max 1 µM)", 0.401),
]

---

- System: KMS-12-BM (Plasma Cell Myeloma)
- assay-method-text: combination Emax (second highest fraction inhibited in the dose matrix, 72 h); higher = more inhibition; extreme values may be limits of the assay

# compound, target, combination Emax
measured = [
    ("COc1cccc(OCCCN)c1-c1cc(Nc2cnc(C#N)cn2)n[nH]1 [Prexasertib] + CN(C)CCCOc1ccc(-c2ccc3ncc4c(c3c2)n(C2CCOCC2)c(=O)n4C)cn1 [AZD0156] (first compound max 1 µM, 7x7, partner max 1 µM)", "KMS-12-BM (Plasma Cell Myeloma)", 1),
    ("Cc1c2c(nn1C)CSCc1cc(n(C)n1)CSc1cc(c3ccccc3c1)OCCCc1c(C(=O)O)n(C)c3c-2c(Cl)ccc13 [AZD5991] + Cn1cnc2c(F)c(Nc3ccc(Br)cc3Cl)c(C(=O)NOCCO)cc21 [Selumetinib] (first compound max 1 µM, 7x7, partner max 3 µM)", "KMS-12-BM (Plasma Cell Myeloma)", 1),
    ("Cc1c2c(nn1C)CSCc1cc(n(C)n1)CSc1cc(c3ccccc3c1)OCCCc1c(C(=O)O)n(C)c3c-2c(Cl)ccc13 [AZD5991] + CN(C)CCCOc1ccc(-c2ccc3ncc4c(c3c2)n(C2CCOCC2)c(=O)n4C)cn1 [AZD0156] (first compound max 1 µM, 7x7, partner max 1 µM)", "KMS-12-BM (Plasma Cell Myeloma)", 1),
    ("COc1nnc2ccc(N3CCC(c4ccc(OCCN5CCN(C)C(=O)[C@H]5C)cc4)CC3)nn12 [AZD5153] + CCN(CCO)CCCOc1ccc2c(Nc3cc(CC(=O)Nc4cccc(F)c4)[nH]n3)ncnc2c1 [AZD2811] (first compound max 1 µM, 7x7, partner max 1 µM)", "KMS-12-BM (Plasma Cell Myeloma)", 0.998),
]

---

- Test system: CHSA8926 (Chondrosarcoma)
- assay-method-text: combination Emax (second highest fraction inhibited in the dose matrix, 72 h); higher = more inhibition; extreme values may be limits of the assay
In this section we review reported combination Emax values for a set of molecules.
reported-metric: combination Emax

# molecule, reported-metric, measurement
rows = [
    ("NC1(C(=O)N[C@@H](CCO)c2ccc(Cl)cc2)CCN(c2ncnc3[nH]ccc23)CC1 [Capivasertib] + C[C@@H]1COCCN1C2=NC(=NC(=C2)C3(CC3)[S@](=N)(=O)C)C4=C5C=CNC5=NC=C4 [AZD6738] (first compound max 10 µM, 7x7, partner max 10 µM)", "combination Emax", 0.54),
    ("CC(=O)c1c(C)c2cnc(Nc3ccc(N4CCNCC4)cn3)nc2n(C2CCCC2)c1=O [Palbociclib] + CN(CC[C@H](CSC1=CC=CC=C1)NC2=C(C=C(C=C2)S(=O)(=O)NC(=O)C3=CC=C(C=C3)N4CCC(CC4)[C@H](C5=CC=CC=C5C6=CC=C(C=C6)Cl)O)S(=O)(=O)C(F)(F)F)CCO [AZD4320] (first compound max 10 µM, 7x7, partner max 1 µM)", "combination Emax", 0.741),
    ("COc1cccc(OCCCN)c1-c1cc(Nc2cnc(C#N)cn2)n[nH]1 [Prexasertib] + C=CCn1c(=O)c2cnc(Nc3ccc(N4CCN(C)CC4)cc3)nc2n1-c1cccc(C(C)(C)O)n1 [AZD1775] (first compound max 1 µM, partner max 1 µM)", "combination Emax", 0.531),
]

---

- System: DAN-G (Pancreatic Carcinoma)
- assay-method-text: combination Emax (second highest fraction inhibited in the dose matrix, 72 h); higher = more inhibition; extreme values may be limits of the assay
reported-metric: combination Emax

# compound, measurement
records = [
    ("Cc1cc2ncnn2cc1Nc1ncc2c(n1)n(C1CCOCC1)c(=O)n2C [AZD7648] + O=C(c1cc(Cc2n[nH]c(=O)c3ccccc23)ccc1F)N1CCN(C(=O)C2CC2)CC1 [Olaparib] (first compound max 10 µM, 7x7, partner max 10 µM)", 0.531),
]

---

Form field: combination Emax (one value per entry).
- System: COR-L279 (Small Cell Lung Carcinoma)
- assay-method-text: combination Emax (second highest fraction inhibited in the dose matrix, 72 h); higher = more inhibition; extreme values may be limits of the assay
reported-metric: combination Emax

# compound, measurement
rows = [
    ("NC1(C(=O)N[C@@H](CCO)c2ccc(Cl)cc2)CCN(c2ncnc3[nH]ccc23)CC1 [Capivasertib] + CCN(CCO)CCCOc1ccc2c(Nc3cc(CC(=O)Nc4cccc(F)c4)[nH]n3)ncnc2c1 [AZD2811] (first compound max 10 µM, 7x7, partner max 1 µM)", 0.935),
    ("CC(=O)Nc1cccc(-n2c(=O)n(C3CC3)c(=O)c3c(Nc4ccc(I)cc4F)n(C)c(=O)c(C)c32)c1 [Trametinib] + Cc1nc(-c2cn3c(n2)-c2ccc(-c4cnn(C(C)(C)C(N)=O)c4)cc2OCC3)n(C(C)C)n1 [Taselisib] (first compound max 1 µM, 7x7, partner max 10 µM)", 0.661),
]

---

We begin with a simple list: items and their reported combination Emax.
- System: CW-2 (Colorectal Carcinoma)
- assay-method-text: combination Emax (second highest fraction inhibited in the dose matrix, 72 h); higher = more inhibition; extreme values may be limits of the assay
reported-metric: combination Emax

# compound, measurement
rows = [
    ("CCc1c2c(nc3ccc(O)cc13)-c1cc3c(c(=O)n1C2)COC(=O)[C@]3(O)CC [SN-38] + O=C(c1cc(Cc2n[nH]c(=O)c3ccccc23)ccc1F)N1CCN(C(=O)C2CC2)CC1 [Olaparib] (first compound max 0.3 µM, 7x7, partner max 10 µM)", 0.604),
    ("CCN(CCO)CCCOc1ccc2c(Nc3cc(CC(=O)Nc4cccc(F)c4)[nH]n3)ncnc2c1 [AZD2811] + C[C@@H]1COCCN1C2=NC(=NC(=C2)C3(CC3)[S@](=N)(=O)C)C4=C5C=CNC5=NC=C4 [AZD6738] (first compound max 1 µM, 7x7, partner max 10 µM)", 0.524),
    ("CN(CCO)CC[C@H](CSc1ccccc1)Nc1ccc(S(=O)(=O)NC(=O)c2ccc(N3CCC([C@@H](O)c4ccccc4-c4ccc(Cl)cc4)CC3)cc2)cc1S(=O)(=O)C(F)(F)F [AZD4320] + Cc1cc2ncnn2cc1Nc1ncc2c(n1)n(C1CCOCC1)c(=O)n2C [AZD7648] (first compound max 1 µM, 7x7, partner max 10 µM)", 0.154),
]

---

- Tested on: RPMI-8226 (Plasma Cell Myeloma)
- assay-method-text: combination Emax (second highest fraction inhibited in the dose matrix, 72 h); higher = more inhibition; extreme values may be limits of the assay
Reported combination Emax values for the following molecules.

# molecule, combination Emax
data = [
    ("NC1(C(=O)N[C@@H](CCO)c2ccc(Cl)cc2)CCN(c2ncnc3[nH]ccc23)CC1 [Capivasertib] + CC(C)n1c(=O)n(C)c2cnc3cc(F)c(-c4ccc(OCCCN5CCCCC5)nc4)cc3c21 [AZD1390] (first compound max 10 µM, 7x7, partner max 0.3 µM)", 0.135),
    ("CC1(C)CCC(CN2CCN(c3ccc(C(=O)NS(=O)(=O)c4ccc(NCC5CCOCC5)c([N+](=O)[O-])c4)c(Oc4cnc5[nH]ccc5c4)c3)CC2)=C(c2ccc(Cl)cc2)C1 [Venetoclax] + CCN(CCO)CCCOc1ccc2c(Nc3cc(CC(=O)Nc4cccc(F)c4)[nH]n3)ncnc2c1 [AZD2811] (first compound max 1 µM, 7x7, partner max 1 µM)", 0.481),
]
